Let's look at some molecules and their measured growth inhibition.
# Experiment description: NCI Yeast Anticancer Drug Screen. Data for the cln2 rad14 strain (AID 165);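 further: 0% = growth equal to vehicle treated cultures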
# Condition parameters: S. cerevisiae cln2 rad14 strain, at 50.0 µM (retest, dose inferred, filed as 5.0), hits give high values
The panel holds about 79,000 compounds, 15% with a hit somewhere; the sample as a whole holds those more often.
Just the number please, in %, no unit attached.

Worked cases, answers included:
INSERT INTO assay_data (molecule, u, value_reported) VALUES
  ('OCC(CCc1c[nH]c2ccccc12)c1c[nH]c2ccccc12 (centres undefined)', '%', 99),
  ('N#CCc1nc(Cl)cc(Cl)n1', '%', 12),
  ('C1CCN(c2nc(N3CCOCC3)c3[nH]c(N4CCCCC4)nc3n2)CC1', '%', 49),
  ('CCOC(C)(OCC)C(N)c1ccccc1 (centres undefined)', '%', 5),
  ('COc1ccc(C2Oc3ccc(Cl)cc3C=C2[N+](=O)[O-])cc1OC (centres undefined)', '%', 96),
  ('NC(N)=Nc1ccc(N=C(N)N)cc1', '%', 1);

Field request: growth inhibition | item: O=C1CSc2ccccc2-n2cccc21
30

Input CCOC(=O)C1=C(c2ccccc2)c2ccccc2OC1C(=O)O (centres undefined)
38

Repeat for the following molecule: CC(=O)Nc1nnc(-c2coc3ccccc3c2=O)s1
1

Repeat with O=[N+]([O-])/C(C(Cl)=C(Cl)Cl)=C(/Sc1ccccc1)N1CCCCC1
95

Same question, CCCCCC(CN(C)C)C(O)/C=C\c1ccccc1 (centres undefined) this time
-6

Please give the result for COC(=O)C1=C(CS(=O)c2ccccc2[N+](=O)[O-])ON(C)C1c1ccccc1 (centres undefined) too.
11

Entry to check: CCC(=O)OC1CCC(C2CCCCC2)CC1 (centres undefined)
7

Quick one: O=C(CC(=O)c1ccccc1)CC(=O)c1ccccc1Cl
81

====

Below, each entry is listed with its recorded growth inhibition.
# Experiment description: NCI Yeast Anticancer Drug Screen. Data for the mec2-1 strain (AID 157)
# Condition parameters: S. cerevisiae mec2-1 strain, at 50.0 µM, hits give high values
About 79,000 compounds went through this panel and 15% of them were active in at least one assay; those are over-represented in the sample as a whole.
Number in %, nothing else.

# example entries with known answers
INSERT INTO assay_data (molecule, value_reported) VALUES
  ('CCC[N+]1=C(/C=C/c2cc(C)c3cccnc3c2O)C(C)(C)c2ccccc21', 90.3),
  ('C[Si](C)(C)C1=C([Si](C)(C)C)C(Cl)(Cl)C1=O', 9.35),
  ('NC(=O)C1C(=O)c2cccc3c2C1(Br)C(Br)CCC3 (configuration not stated)', 99.4),
  ('CC(C)(C)OC(=O)CSC#N', 66.2),
  ('Cc1cccc(NC(=O)Oc2ccc(Cl)c3cccnc23)c1', 88.7);

Which growth inhibition value is on record for CCN1C(Cl)=NS(=O)(=O)c2ccccc21 ?
-3.45

Also COC(=O)CCc1c(Cc2ccc[nH]2)[nH]c(C(=O)OCc2ccccc2)c1C ?
71

====

# Experiment description: NCI Yeast Anticancer Drug Screen. Data for the bub3 strain (AID 167)
# Condition parameters: S. cerevisiae bub3 mutant strain, at 50.0 µM (retest, dose inferred, filed as 5.0), hits give high values
# Description: Growth inhibition of yeast strains with defined genetic alterations is measured as a screen for potential anti-cancer activity. Selected strains with alterations in DNA damage repair or cell cycle control were exposed to compounds and growth inhibition was measured relative to vehicle treated controls. The strain used in this assay is bub3
This is part of a sample that, as a whole, favours compounds with a hit. Of some 79,000 tested, about 15% had one in any assay.
Parameter: growth inhibition. Scope: all listed entries.
// units = %; emit number, no label

Record excerpt, results attached:
INSERT INTO results (compound, u, value_reported) VALUES
  ('CCOC(=O)c1ccc(NC(=O)O/N=C(/Cl)CC)cc1', '%', 51),
  ('CCC/C=C1/OC(=O)C2=C[C@H]3CC[C@]21[C@]1(OC(=O)C2=C1CCC=C2)[C@H]3CCC', '%', 93),
  ('Cn1c(CN(Cc2nc3ccccc3n2C)Cc2nc3ccccc3n2C)nc2ccccc21', '%', 47);

Look up growth inhibition for this compound: O=C(O)C(O)C(O)C(OC1OC(CO)C(O)C(O)C1O)C(O)CO.[Br][Pt].[NH-]C1CCCCC1[NH-] (stereo unspecified)
97

Now consider O=C(Nc1ccc(Cl)cc1)Nc1nnc2nc(C(C(=O)c3ccc(F)cc3)c3nc4nnc(NC(=O)Nc5ccc(Cl)cc5)n4[nH]c3=O)c(=O)[nH]n12 .
48

For CC(=O)OC1=C(Br)CCc2ccccc21 then?
100

Next record, please: CC(=O)c1cccc(NC2C(N)C(NC(=O)N(C)C)(C(C)O)C(C)(O)C2(O)COC(=O)c2c(C)cccc2O)c1 (stereo unspecified)
98

Param item: CC(C)C(Sc1nc(-c2ccccc2)c(-c2ccccc2)[nH]1)C(=O)NN (stereo unspecified)
98

Likewise for CCCNC(=O)c1cc2ccccc2cc1C(=O)OC ?
94

Can you handle OC(c1ccccc1)(c1ccccc1)c1ccc[cH-]1.OC(c1ccccc1)(c1ccccc1)c1ccc[cH-]1.[Fe+2] next?
-1

Then what about the compound O=C(O)CCCCCCCCCC[S+](CCO)CCO ?
12

Also, O=C(Nc1ccccc1)c1ccc([N+](=O)[O-])o1 please.
79

Try this compound too: Cc1c2ccccc2c(=O)n2c(-c3ccccn3)cccc12
-17

Try O=C1CC(=Nc2ccc([N+](=O)[O-])cc2)NN1c1c(Cl)cc(Cl)cc1Cl next.
95

What do you have for NC(Cc1ccnnc1)C(=O)O (stereo unspecified) ?
-9

Then this compound: CCCC(C)c1ccc(O)cc1 (stereo unspecified)
17

Same read-out for C/C=C/C1=C(Cl)C(=O)[C@@H](Cl)[C@@]1(O)C(=O)OC ?
95

Item: O=C(COc1ccc(Br)cc1Br)N1N=C(c2ccc([N+](=O)[O-])o2)CC1(O)c1ccccc1 (stereo unspecified)
7

Would you kindly repeat that for Cc1c(F)c(C)c(C(=O)O)c(C)c1F ?
99

====

# Experiment description: NCI Yeast Anticancer Drug Screen. Data for the sgs1 mgt1 strain (AID 161);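 further: 0% = growth of cultures given vehicle only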
# Condition parameters: S. cerevisiae sgs1 mgt1 strain, at 50.0 µM, hits give high values
About 79,000 compounds went through this panel and 15% of them were active in at least one assay; those are over-represented in the sample as a whole.
Short version: growth inhibition at least 70% is 1, less is -1.

Would you please look over these solved cases?
INSERT INTO assay_data (compound, assigned_category) VALUES
  ('CCCCCCCCCCCCCCCCNCCCCCCCC(=O)O', 1),
  ('COC(=O)C12OCC34C(CC5C(C)C6=CC(=O)OC6=CC5(C)C3C(O)C1O)OC(=O)C(O)C24 (stereo not given)', 1),
  ('[N-]=[N+]=NCC(O)c1ccc2c(c1)[nH]c1ccccc12 (stereo not given)', -1);

Alright, here's another compound for you.
Hi, just wondering whether CCC(C)(C)c1ccc(OCCO)c([N+](=O)[O-])c1 shows growth inhibition of 70% or higher.
1

====

The entries below are paired with their reported growth inhibition.
# Experiment description: NCI Yeast Anticancer Drug Screen. Data for the bub3 strain (AID 167)
# Condition parameters: S. cerevisiae bub3 mutant strain, at 50.0 µM, hits give high values
This is part of a sample that, as a whole, favours compounds with a hit. Of some 79,000 tested, about 15% had one in any assay.
Respond numerically; units are % and should not be typed.

Illustrative cases are given below, each with its answer.
INSERT INTO assay_data (compound, value_reported) VALUES
  ('CCC(C)SC1SCC2C(=O)N(C)C3(CC3C)C(=O)OCC(NC(=O)c3nc4ccccc4cc3O)C(=O)NC(C)C(=O)N(C)C1C(=O)N(C)C1(CC1C)C(=O)OCC(NC(=O)c1nc3ccccc3cc1O)C(=O)NC(C)C(=O)N2C (configuration not stated)', 91.2),
  ('c1ccc(Nc2cccc3ccccc23)cc1', 91.5),
  ('CCCCCCCCCCCC(O)=C1C(=O)CC(O)CC1=O (configuration not stated)', 89.7),
  ('Cc1ccc2nc(C[n+]3cccc4ccccc43)ccc2c1', 99.7);

Can you share its growth inhibition? I mean this compound: O=C(COC(=O)c1ccc(O)cc1)c1ccc(-c2ccccc2)cc1
17.6

Now consider N#CC(c1c(Cl)cccc1N1CCCCC1)N1CCCCC1 (configuration not stated) .
91.2

Also, CCCCCCCCCCCCCCCCn1cc(C(O)CN(C)C)c2ccccc21 (configuration not stated) please.
39.6

====

# Experiment description: NCI Yeast Anticancer Drug Screen. Data for the mec2-1 strain (AID 157)
# Condition parameters: S. cerevisiae mec2-1 strain, at 5.0 µM (retest, dose inferred, filed as 0.5), hits give high values
The panel holds about 79,000 compounds, 15% with a hit somewhere; the sample as a whole holds those more often.
Assay readout: growth inhibition (%)
Please reply with the bare figure in % and do not write the unit itself.

These recorded examples may help you get a feel for the data.
INSERT INTO results (molecule, u, value_reported) VALUES
  ('Cc1cc(C(O)(C(F)(F)F)C(F)(F)F)cc(C(O)(C(F)(F)F)C(F)(F)F)c1', '%', 12),
  ('Cn1c(=O)c2c3oc(=O)cc(O)c3c(=O)n3c4ccccc4n(c1=O)c23', '%', 29),
  ('C=C1CC2(CCCC3(CC(=C)C(=O)O3)C2(C)C)OC1=O (stereo not given)', '%', 14);

Please give the measured growth inhibition for this molecule: Cc1ccc(S(=O)(=O)N/N=C/c2cc(I)cc([N+](=O)[O-])c2O)cc1
13

Follow-up item: CC1(C)N([O-])[N+](=O)C1(Br)c1ccccc1 (stereo not given)
17

Ok, now CCOC(=O)/C(=C\c1ccc(Cl)cc1)C(C)=O
49

Moving on to the next molecule: O=C1c2ccccc2CC(Br)c2ccccc21 (stereo not given)
-4

What do you have for CCCCCCCCCCCCNC(=O)OCC(C)O (stereo not given) (tested in a mixture with another compound) ?
76

Another: [Cl][Sn]1([Cl])[CH2]CC[CH2][Sn]([Cl])([Cl])[CH2]CC[CH2][Sn]([Cl])([Cl])[CH2]CC[CH2][Sn]([Cl])([Cl])[CH2]CC[CH2]1
-19

Cool, now Nc1cccc2c1C(=O)c1ccc(Cl)cc1C2=O
18
